Hello, the source for this data is paper PMC12817919, in case you need it.

- System: wild-type RSV
- assay_procedure: microbe, parasite or virus in culture
- Assay type: cell-based
- measurement_context: wild-type RSV; Table 2 cross-resistance experiment, HEp-2; read-out: EC50 RSV
property: EC50 (nM)
Value expressed in nM; do not type the unit.

Given the molecule CS(=O)(=O)CCCn1c(Cn2c(=O)n(CC(F)(F)F)c3ccncc32)cc2cc(Cl)ccc21 , what is its reported EC50?
0.7

---

Can you tell me EC50 for the items I'm about to list?
- Test system: wild-type RSV
- assay_procedure: microbe, parasite or virus in culture
- Format: cell-based
- measurement_context: human respiratory syncytial virus; wild-type RSV; Table 2 cross-resistance experiment, HEp-2; read-out: EC50 RSV
Quick reminder: number only, in pM, skip the unit.

For Cc1ccc2nc(N3CCS(=O)(=O)c4ccccc4C3)nc(NCC3(N)COC3)c2c1 [AK0529] , what is its reported EC50?
1300

Quick one: EC50 for NC(=O)N1CCC(CC(=O)N2CCC([C@H]3c4ncc(Br)cc4CCc4cc(Cl)cc(Br)c43)CC2)CC1 [Lonafarnib] ?
45600

# EC50 lookup, item Cc1cn2nc([C@@H]3CCCCN3C(=O)c3cc(Cl)ccc3NS(C)(=O)=O)cc2nc1N1CC[C@H](N)C1 [GS-5806]
100

Fill in the blank: the reported EC50 of NCc1ccc2c(c1)nc(CN1C(=O)C3(CC3)c3ccc(F)cc31)n2CCCC(F)(F)F [RV521] is ____.
100

---

- Tested on: RSV K399N
- Type: cell-based, respiratory syncytial virus (RSV)
- measurement_context: Table 2 cross-resistance experiment, HEp-2; read-out: EC50 RSV K399N
I'd be grateful if you could share measured pEC50 for these entries.
pEC50 field: float, defined as -log10 of concentration (mol/L).

Give its pEC50 value. Item: NC(=O)N1CCC(CC(=O)N2CCC([C@H]3c4ncc(Br)cc4CCc4cc(Cl)cc(Br)c43)CC2)CC1 [Lonafarnib]
6.39

Reported pEC50, compound Cc1ccc2nc(N3CCS(=O)(=O)c4ccccc4C3)nc(NCC3(N)COC3)c2c1 [AK0529] : ____
5.65

Record request: pEC50 value, item Cc1cn2nc([C@@H]3CCCCN3C(=O)c3cc(Cl)ccc3NS(C)(=O)=O)cc2nc1N1CC[C@H](N)C1 [GS-5806]
8.36

May I ask what pEC50 has been recorded for CS(=O)(=O)CCCn1c(Cn2c(=O)n(CC(F)(F)F)c3ccncc32)cc2cc(Cl)ccc21 [JNJ-53718678] ?
6.60

Entry under review: NCc1ccc2c(c1)nc(CN1C(=O)C3(CC3)c3ccc(F)cc31)n2CCCC(F)(F)F [RV521] . Reported pEC50?
9.40

---

- Tested on: RSV ON1
- assay_procedure: microbe, parasite or virus in culture
- Format: cell-based
- measurement_context: human respiratory syncytial virus; HEp-2 (RSV ON1, MOI = 0.2), 72 h, FFA
Record form. Attribute: pEC50. Fill in for each entry.
As a rule, pEC50 stands for the negative log10 of the concentration, concentration in M.

Item O=C1CCC(N2C(=O)c3cccc(NCCOCCOCCOCCC(=O)N4CCC(CC(=O)N5CCC([C@H]6c7ncc(Br)cc7CCc7cc(Cl)cc(Br)c76)CC5)CC4)c3C2=O)C(=O)N1 (some centres unmarked) has what recorded pEC50?
6.34

Fill in: pEC50 of NC(=O)N1CCC(CC(=O)N2CCC([C@H]3c4ncc(Br)cc4CCc4cc(Cl)cc(Br)c43)CC2)CC1 is ___
7.22
